Just for reference, PubChem BioAssay is where these values come from.

Overview of reported cell count across a group of compounds:
Experiment notes: inhibitors of TNFa-induced NFkB p65 translocation, primary screen, imaging, HUVEC, MLSMR starter and 10KST1 sets (AID 438);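 note: compound added about 3h40 before a 20 min TNFalpha stimulation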
Condition details: HUVEC TNFa-induced p65 nuclear translocation; measured here: nuclei count (cytotoxicity indicator), at 2.08 µM
Please state the value as a number alone, without comment.

I'd like to know its cell count. The compound in question is CCOC(=O)N1CCN(C(=O)c2ccc(CS(=O)(=O)c3c(Cl)cccc3Cl)o2)CC1
512

I'd like to know its cell count. The compound in question is COC(=O)C(NC(=O)c1ccco1)(Nc1nc(C)cs1)C(F)(F)F (stereo not given)
365

I'd like to know its cell count. The compound in question is CCOn1c(=O)c(=O)n(OCc2ccccc2)c2ccccc21
355

I'd like to know its cell count. The compound in question is CN1CCc2c(c3c(n2C)CCN(C)[C@@H]3c2cccnc2)[C@H]1c1cccnc1
406

Proceeding to the next compound to report its cell count.
I'd like to know its cell count. The compound in question is O=C(CSc1nnc(-c2ccccc2)o1)N1CCN(c2ccccc2)CC1
220

----------
Assayed system: Dual specificity protein phosphatase 6 (Homo sapiens)
Experiment notes: DUSP6 inhibitors restoring Erk phosphorylation by chemical complementation, primary imaging in DUSP6-transfected HeLa (AID 609);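 note: phospho-Erk level distribution per well compared with pooled transfected vehicle control wells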
Condition details: HeLa MKP-3 transfected, phospho-Erk imaging KS statistic; at 10 µM; stronger effect = higher value; cells stimulated with TPA for 15 min
Property: inhibition (%)
State the answer as a number, implicitly in %.

I'd like to know its inhibition. The molecule in question is CCOc1ccc(S(=O)(=O)NC(C)(C)C)cc1-c1nc2c(C(C)(C)C)nn(C)c2c(=O)[nH]1
31.4

I'd like to know its inhibition. The molecule in question is CCC1CC2(C)NC(=O)c3c(sc4c3CC(C)(C)OC4)N2C1=O (stereo not drawn)
1.98

I'd like to know its inhibition. The molecule in question is CCNC(=O)COn1c(SCC(=O)NCC)nc2ccccc2c1=O
-4.7

I'd like to know its inhibition. The molecule in question is CCOC(=O)c1[nH]c2ccccc2c1NC(=O)CN(C)C
7.93

I'd like to know its inhibition. The molecule in question is c1nc(NC2CCCCC2)c2[nH]cnc2n1
9.91

I'd like to know its inhibition. The molecule in question is CCCc1nnc(NC(=O)Nc2ccccc2OC)s1
42.6

I'd like to know its inhibition. The molecule in question is CCCCn1c(=O)n(C)c(=O)c2c3c(sc21)COC(C)(C)C3
1.63

Proceeding to the next molecule to report its inhibition.
I'd like to know its inhibition. The molecule in question is CN(C)CCCN1C(=O)C(=O)/C(=C(/O)c2ccccc2)C1c1ccccn1 (stereo not drawn)
1.04

----------
Experiment notes: inhibitors of Sendai virus-induced IRF3 signaling, primary screen, TLR/RLR signaling modifier project, cell-based, Sendai virus stimulus, luciferase, 10K MLSCN set (AID 602276);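 note: firefly luciferase from ISG56 promoter only with Renilla not read in this screen; 0% = Sendai virus plus DMSO and 100% = medium plus DMSO without virus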
Condition details: HEK293 RL24 IRF3 luciferase reporter, at 10 µM, stronger effect = higher value
Property: inhibition (%)
State the answer as a number, implicitly in %.

I'd like to know its inhibition. The molecule in question is CCOc1ccc(NC(=O)Cn2nnc(-c3ccccc3F)n2)cc1
9.14

I'd like to know its inhibition. The molecule in question is CC(C)OC(=O)CSc1nnc(-c2ccccn2)n1-c1ccccc1
4.23

I'd like to know its inhibition. The molecule in question is CCOC(=O)C1=C(c2ccccc2)N2CCN=C2S1
1.18

Continuing:
I'd like to know its inhibition. The molecule in question is CN(C)S(=O)(=O)NC(c1ccccc1)c1ccccc1
20.5

I'd like to know its inhibition. The molecule in question is COC(=O)Nc1ccc(NC(C)=O)cc1
-9.94

----------
Overview of reported nuclei count across a group of compounds:
Experiment notes: inhibitors of mutant huntingtin aggregation, primary screen, imaging, exon1htt(103Q)mCFP cells, high-content imaging (AID 483);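 note: compound exposure lasted 3 days before fixation; percent of the per-plate median nuclei count of sample wells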
Condition details: exon1htt(103Q)mCFP cell line, aggregate imaging, at 2 µM; measured here: cell count, toxicity
# output: numeric value plus its unit

I'd like to know its nuclei count. The compound in question is COC(=O)c1cc(-c2c(C)oc3cc(O)ccc3c2=O)c(C)o1
114%

I'd like to know its nuclei count. The compound in question is O=C1CCCc2nc(N3CCCCC3)sc21
108%

I'd like to know its nuclei count. The compound in question is COc1ccccc1-c1nc2n(n1)C(c1cccs1)C(C(=O)Nc1cccnc1)=C(C)N2 (stereo not drawn)
57.9%

I'd like to know its nuclei count. The compound in question is COC(=O)CCn1nnc(-c2cccs2)n1
110%

I'd like to know its nuclei count. The compound in question is OCc1cn(-c2ccccc2)nc1-c1ccc2c(c1)OCCO2
99.4%

Continuing:
I'd like to know its nuclei count. The compound in question is Cc1ccccc1NC(=O)CN1CCC(NC(=O)Nc2ccccc2)CC1
68%

I'd like to know its nuclei count. The compound in question is COc1cccc(C2CC(=O)Nc3c2c(=O)n(C)c(=O)n3C)c1OC (stereo not drawn)
39.6%

I'd like to know its nuclei count. The compound in question is Cc1nc2sc(C(c3ccc(Br)cc3)N3CC(C)OC(C)C3)c(O)n2n1 (stereo not drawn)
106%

I'd like to know its nuclei count. The compound in question is CNC(=O)c1ccsc1NC(=O)CN1C(=O)CCC1=O
90.3%

----------
Overview of reported inhibition across a group of compounds:
Experiment notes: inhibitors of E-selectin induction by TNFa, primary screen, imaging, HUVEC, immunofluorescence, MLSMR starter and 10KST1 sets (AID 487);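 note: signal is fraction of cell area covered by stained E-selectin grains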
Condition details: HUVEC TNFalpha-induced E-selectin immunofluorescence imaging, at 2 µM; stronger effect = higher value
State the answer as a number, implicitly in %.

I'd like to know its inhibition. The compound in question is COc1ccc(S(=O)(=O)N2CCC(C(=O)Nc3c(F)cccc3F)CC2)cc1
-55.4

I'd like to know its inhibition. The compound in question is CCOC(=O)Cn1c(CCC(=O)O)ccc1-c1ccc(F)cc1
-54.4

I'd like to know its inhibition. The compound in question is COC(=O)c1ccc(C2/C(=C(\O)c3cccc(OC)c3)C(=O)C(=O)N2CCCN(C)C)cc1 (stereo not given)
-82.8

I'd like to know its inhibition. The compound in question is CC(=O)N(Cc1ccccc1)c1ccc(C(=O)O)cc1
-65.3

I'd like to know its inhibition. The compound in question is COCC(C)Nc1ncnc2c1cnn2-c1ccc(Cl)cc1 (stereo not given)
-34.4

I'd like to know its inhibition. The compound in question is O=C(NC1CCCC1)c1ccc2nc[nH]c2c1
-41.4

I'd like to know its inhibition. The compound in question is CCC(=O)Nc1ccc(-c2nnc(SCC(=O)NCC3CCCO3)n2C)cc1 (stereo not given)
10.4

I'd like to know its inhibition. The compound in question is CCCn1c(C)nc2c(c1=O)c1nc3ccccc3nc1n2CCc1ccccc1
-102

I'd like to know its inhibition. The compound in question is O=C(CCNS(=O)(=O)c1cccs1)Nc1ccccc1F
-9.8

I'd like to know its inhibition. The compound in question is CCOC(=O)Cc1csc(NC(=O)CSc2nnc(C)n2C)n1
-8.1

I'd like to know its inhibition. The compound in question is CC(=O)Nc1cccc(Oc2nc(C)cc(C)c2C#N)c1
-87

I'd like to know its inhibition. The compound in question is COC(=O)c1ccccc1OCc1cccc(C)n1
-85

I'd like to know its inhibition. The compound in question is O=C(Cc1cccs1)NCc1ccc(F)cc1
56.1

I'd like to know its inhibition. The compound in question is CCCSc1nnc(N2C(=O)CC(c3ccsc3)C3=C2CCCC3=O)s1 (stereo not given)
-39.5

I'd like to know its inhibition. The compound in question is COc1cccc(NC(=O)C2CC(=O)n3cnnc3S2)c1 (stereo not given)
12.1

----------
Overview of reported inhibition across a group of compounds:
Experiment notes: inhibitors of poly I:C-induced TLR3 signaling, primary screen, cell-based, poly I:C stimulus, luciferase, 10K MLSCN set (AID 602277)
Condition details: HEK293-TLR3 RL24 IRF3 luciferase reporter, at 10 µM, stronger effect = higher value
State the answer as a number, implicitly in %.

I'd like to know its inhibition. The compound in question is CN(C)CCCN1C(=O)CSC1c1ccccc1 (centres undefined)
35.9

Continuing:
I'd like to know its inhibition. The compound in question is CC(C)Cn1c(=O)c(C2=NS(=O)(=O)c3ccccc3N2)c(O)c2ccccc21
18

I'd like to know its inhibition. The compound in question is O=C(NC1CCCCC1)C(c1ccccc1)N(Cc1ccco1)C(=O)Cn1cnc2ccccc21 (centres undefined)
20.8
